As an illustration, consider measured pIC50 for compounds on UniProt:P0DTD1.
pIC50: −log10 of the molar value.
outcome measure: pIC50

[[record]]
molecule_smiles = "CC1(C)[C@@H]2[C@@H](C(=O)N[C@H](C#N)C[C@@H]3CCNC3=O)N(C(=O)[C@@H](NC(=O)C(F)(F)F)c3ccc(Cl)cc3)C[C@@H]21"
outcome_measure = "pIC50"
measured_number = 6.38

[[record]]
molecule_smiles = "CC1(C)[C@@H]2[C@@H](C(=O)N[C@H](C=O)C[C@@H]3CCNC3=O)N(C(=O)C(c3ccc(Cl)cc3)c3ccc(Cl)cc3)C[C@@H]21"
outcome_measure = "pIC50"
measured_number = 6.55

[[record]]
molecule_smiles = "CC1(C)[C@@H]2[C@@H](C(=O)N[C@H](C=O)C[C@@H]3CCNC3=O)N(C(=O)OC(c3ccc(F)cc3)c3ccc(F)cc3)C[C@@H]21"
outcome_measure = "pIC50"
measured_number = 7.03

